- testedSystem: p53-MDM2 interaction (GST-MDM2 protein aa 23-117 / biotinylated p53 wt peptide) (Homo sapiens (Human))
- Sequence (Q00987 23-117): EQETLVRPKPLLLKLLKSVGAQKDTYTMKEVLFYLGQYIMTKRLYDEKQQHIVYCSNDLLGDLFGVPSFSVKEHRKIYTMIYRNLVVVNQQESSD
- procedureDetails: Mdm2-p53 Inhibition AlphaScreen
- conditionSummary: GST-MDM2 (aa 23-117) / biotinylated p53 wt peptide
pIC50: −log10 of the molar value.
Respond with Yes for pIC50 values of 8 and above, No for values below.

Has Cc1c(C(=O)O)ccc2nc3n(c12)CC[C@H]1[C@@H]3[C@H](c2cccc(Cl)c2F)[C@]2(C(=O)Nc3cc(Cl)ccc32)N1CC1CC1 [Ib-206] a recorded pIC50 greater than or equal to 8?
Yes

What about `O=C(O)c1ccc2c(nc3n2C[C@H]2[C@@H]3[C@H](c3cccc(Cl)c3F)[C@]3(C(=O)Nc4cc(Cl)ccc43)N2CC2CC2)c1C(F)(F)F` ?
Yes

What about COCc1cccc(CN2[C@H]3Cn4c(nc5cc(C(=O)O)ccc54)[C@H]3[C@H](c3cccc(Cl)c3F)[C@]23C(=O)Nc2cc(Cl)ccc23)c1 [Ib-183] ?
Yes

What about `O=C(c1ccc2c(c1)nc1n2CC[C@H]2[C@@H]1[C@H](c1cccc(Cl)c1F)[C@]1(C(=O)Nc3cc(Cl)ccc31)N2CC1CC1)N1CC(O)C1` ?
Yes

What about `CCOc1cccc(CN2[C@@H]3Cn4c(nc5cc(C(N)=O)ccc54)[C@@H]3[C@@H](c3cccc(Cl)c3F)[C@@]23C(=O)Nc2cc(Cl)ccc23)c1` ?
No

What about `CCOc1cccc(CN2[C@H]3Cn4c(nc5cc(C(=O)NO)ccc54)[C@H]3[C@H](c3cccc(Cl)c3F)[C@]23C(=O)Nc2cc(Cl)ccc23)c1` ?
Yes

What about `O=C(O)C1(c2ccc3c(c2)nc2n3CC[C@H]3[C@@H]2[C@H](c2cccc(Cl)c2F)[C@]2(C(=O)Nc4cc(Cl)ccc42)N3CC2CC2)CC1` ?
No

What about `O=C(O)c1ccc2c(c1)nc1n2C[C@@H]2[C@H]1[C@@H](c1cccc(Cl)c1F)[C@@]1(C(=O)Nc3cc(Cl)ccc31)N2CC1CC1` ?
No

What about O=C(O)c1ccc2nc3n(c2c1)C[C@H]1[C@@H]3[C@H](c2cccc(Cl)c2F)[C@]2(C(=O)Nc3cc(Cl)ccc32)N1CC1CC1 [Ib-178] ?
Yes

What about `O=C(O)c1cccc2nc3n(c12)CC[C@H]1[C@@H]3[C@H](c2cccc(Cl)c2F)[C@]2(C(=O)Nc3cc(Cl)ccc32)N1CC1CC1` ?
Yes

What about `COc1cc2c(cc1C(=O)O)nc1n2CC[C@H]2[C@@H]1[C@H](c1cccc(Cl)c1F)[C@]1(C(=O)Nc3cc(Cl)ccc31)N2CC1CC1` ?
Yes

What about `O=C1Nc2cc(Cl)ccc2[C@@]12[C@@H](c1cccc(Cl)c1F)[C@@H]1c3nc4ccccc4n3CC[C@@H]1N2CC1CC1` ?
No

What about `O=C(O)c1ccc2c(c1)nc1n2CC[C@@H]2[C@H]1[C@@H](c1cccc(Cl)c1F)[C@@]1(C(=O)Nc3cc(Cl)ccc31)N2CC1CC1` ?
No

What about `O=C(O)c1cc2nc3n(c2cc1F)CC[C@H]1[C@@H]3[C@H](c2cccc(Cl)c2F)[C@]2(C(=O)Nc3cc(Cl)ccc32)N1CC1CC1` ?
Yes
